Here the recorded EC50 is given for each entry.
target: Neuronal acetylcholine receptor; alpha4/beta2 (Homo sapiens, UniProt P17787+P43681); test: Agonist activity at human alpha4beta2 nAChR low sensitivity form expressed in human SH-EP1 cells assessed as increase in calcium flux by FLIPR; assay type: functional, cell-based
Sequence (P17787 whole entry): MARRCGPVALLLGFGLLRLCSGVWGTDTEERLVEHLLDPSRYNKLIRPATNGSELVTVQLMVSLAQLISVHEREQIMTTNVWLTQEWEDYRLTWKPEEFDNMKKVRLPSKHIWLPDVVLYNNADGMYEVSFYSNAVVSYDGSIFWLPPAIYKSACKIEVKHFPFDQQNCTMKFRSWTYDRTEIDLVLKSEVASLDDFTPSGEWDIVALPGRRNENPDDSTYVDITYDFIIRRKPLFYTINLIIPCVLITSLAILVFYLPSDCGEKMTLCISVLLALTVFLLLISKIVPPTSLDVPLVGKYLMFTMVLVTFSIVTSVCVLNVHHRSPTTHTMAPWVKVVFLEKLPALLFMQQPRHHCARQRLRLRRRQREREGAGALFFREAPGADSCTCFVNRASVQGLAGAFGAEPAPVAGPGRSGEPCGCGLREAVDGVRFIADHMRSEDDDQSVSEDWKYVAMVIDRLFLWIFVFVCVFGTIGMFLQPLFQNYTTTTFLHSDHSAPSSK
Sequence (P43681 whole entry): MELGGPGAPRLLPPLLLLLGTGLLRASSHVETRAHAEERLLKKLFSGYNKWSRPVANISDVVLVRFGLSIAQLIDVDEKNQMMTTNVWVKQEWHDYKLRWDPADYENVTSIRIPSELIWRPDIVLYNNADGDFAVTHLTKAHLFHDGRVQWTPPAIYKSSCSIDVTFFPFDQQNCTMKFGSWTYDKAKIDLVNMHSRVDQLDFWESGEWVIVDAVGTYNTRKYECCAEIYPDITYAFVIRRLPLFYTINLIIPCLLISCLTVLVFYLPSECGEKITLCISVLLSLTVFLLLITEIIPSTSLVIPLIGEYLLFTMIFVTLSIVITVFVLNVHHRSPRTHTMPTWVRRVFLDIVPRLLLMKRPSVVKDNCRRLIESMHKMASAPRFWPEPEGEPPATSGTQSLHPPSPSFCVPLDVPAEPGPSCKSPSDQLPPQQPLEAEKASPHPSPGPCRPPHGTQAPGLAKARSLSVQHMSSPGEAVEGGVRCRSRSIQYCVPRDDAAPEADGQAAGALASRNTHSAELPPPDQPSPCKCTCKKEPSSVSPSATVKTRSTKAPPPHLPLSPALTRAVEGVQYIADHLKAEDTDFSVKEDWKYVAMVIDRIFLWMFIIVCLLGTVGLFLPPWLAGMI
// return numeric value only (unit: µM, not printed)

Example molecules with recorded EC50:
>>> numeric_readout("COc1cncc(C2=CC3CC(C2)CN(C)C3)c1 (configuration not stated)")
5.13
>>> numeric_readout("Clc1ccc(C2=CC3CNCC(C2)C3)cn1 (configuration not stated)")
0.035
>>> numeric_readout("C1=C(c2cncnc2)CC2CNCC1C2 (configuration not stated)")
0.162

*Q* Report EC50 for Cc1ccc(C2=CC3CNCC(C2)C3)cn1 (configuration not stated) please.
*A* 0.079

*Q* # EC50 lookup, item Clc1ccc(C2=CC3CNCC(C2)C3)nn1 (configuration not stated)
*A* 0.595

====

target: Neuronal acetylcholine receptor; alpha3/beta4 (Homo sapiens, UniProt P30926+P32297); experiment: Displacement of [3H]epibatidine from human alpha3beta4 nAChR expressed in human SH-SY5Y cells
Sequence (P30926 whole entry): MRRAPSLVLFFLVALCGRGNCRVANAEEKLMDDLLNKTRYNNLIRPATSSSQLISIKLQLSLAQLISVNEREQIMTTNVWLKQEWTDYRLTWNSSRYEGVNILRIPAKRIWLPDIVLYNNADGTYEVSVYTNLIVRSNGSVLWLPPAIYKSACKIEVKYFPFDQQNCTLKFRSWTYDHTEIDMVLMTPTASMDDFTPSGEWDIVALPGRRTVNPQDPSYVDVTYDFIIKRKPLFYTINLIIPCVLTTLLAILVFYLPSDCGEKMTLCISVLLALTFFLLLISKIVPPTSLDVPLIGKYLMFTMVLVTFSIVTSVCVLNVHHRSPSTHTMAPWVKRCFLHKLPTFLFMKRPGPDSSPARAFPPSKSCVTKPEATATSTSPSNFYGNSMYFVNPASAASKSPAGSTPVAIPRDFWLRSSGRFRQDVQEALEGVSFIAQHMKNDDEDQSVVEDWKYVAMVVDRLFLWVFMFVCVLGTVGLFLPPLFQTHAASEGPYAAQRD
Sequence (P32297 whole entry): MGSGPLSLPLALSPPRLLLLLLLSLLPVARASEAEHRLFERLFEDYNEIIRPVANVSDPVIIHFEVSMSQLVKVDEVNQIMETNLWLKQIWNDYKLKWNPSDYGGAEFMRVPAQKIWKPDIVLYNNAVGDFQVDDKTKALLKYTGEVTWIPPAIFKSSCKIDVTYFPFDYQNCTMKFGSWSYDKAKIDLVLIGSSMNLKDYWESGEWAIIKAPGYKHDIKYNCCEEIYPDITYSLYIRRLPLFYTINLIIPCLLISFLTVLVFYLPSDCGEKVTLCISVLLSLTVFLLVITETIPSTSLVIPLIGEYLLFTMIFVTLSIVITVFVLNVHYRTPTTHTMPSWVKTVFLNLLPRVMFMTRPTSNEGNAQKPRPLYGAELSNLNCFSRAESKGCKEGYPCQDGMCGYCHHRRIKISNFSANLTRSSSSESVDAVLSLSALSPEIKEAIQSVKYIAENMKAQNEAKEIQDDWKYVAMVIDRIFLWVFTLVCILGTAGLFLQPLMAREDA
Please assign rule not met whenever Ki is at or above 30 nM, and rule met whenever it is below.

*Q* Confirm or reject: Ki of COc1cc(C2=CC3CNCC(C2)C3)cnc1Cl (configuration not stated) lies strictly below 30 nM
*A* rule met

*Q* Given CN1CC2C=C(c3cncc(OCc4ccccc4)c3)CC(C2)C1 (configuration not stated) , is recorded Ki strictly lower than 30 nM?
*A* rule not met

*Q* State whether 30 nM exceeds Ki recorded for CN1CC2C=C(c3ccc(F)nc3)CC(C2)C1 (configuration not stated) .
*A* rule not met

*Q* Hello, is Ki of the following compound strictly smaller than 30 nM? COc1cncc(C2=CC3CC(C2)CN(C)C3)c1 (configuration not stated)
*A* rule not met

*Q* Does CNCC/C=C/c1cccnc1 have Ki strictly under 30 nM?
*A* rule not met

====

target: Neuronal acetylcholine receptor; alpha4/beta2 (Homo sapiens, UniProt P17787+P43681); assay: Agonist activity at human alpha4beta2 nAChR high sensitivity form expressed in human SH-EP1 cells assessed as increase in calcium flux by FLIPR relative to 10 uM nicotine; format: functional, cell-based
Label t when %max is strictly below 50%; at or above that, label f.

Worked set:
>>> answer_label("Fc1cncc(C2=C[C@H]3CNC[C@@H](C2)C3)c1")
"f"
>>> answer_label("Clc1ccc(C2=CC3CNCC(C2)C3)nn1 (stereo not given)")
"f"
>>> answer_label("Clc1ccc(C2=CC3CNCC(C2)C3)cn1 (stereo not given)")
"f"
>>> answer_label("C1=C(c2cncc(Oc3ccccc3)c2)CC2CNCC1C2 (stereo not given)")
"f"
>>> answer_label("CN1C[C@H]2C=C(c3cccnc3)C[C@H](C2)C1")
"t"
>>> answer_label("CN1CC2C=C(c3ccc(F)nc3)CC(C2)C1 (stereo not given)")
"t"

*Q* Is 50% strictly greater than the molecule's reported %max? molecule: C1=C(c2cccnc2)C[C@@H]2CNC[C@H]1C2
*A* f

*Q* Is %max of CN1C[C@@H]2C=C(c3cccnc3)C[C@@H](C2)C1 strictly below 50%?
*A* f

*Q* Please let me know if N#Cc1cncc(C2=C[C@H]3CNC[C@@H](C2)C3)c1 shows %max below 50%.
*A* f
